// data source = patent US20240246959A1

Test: Pharmacokinetic study on rat
Format: in vivo, SD rats
Details: male, Sprague-Dawley (SD), plasma, iv, 1 mg/kg, i.v
Each entry below carries its recorded half-life.
Express the result in min but write the number alone.

> print(dat)
                                   compound  scaleunit  numericvalue
1  C[C@@H](c1nc2ccc(C(=O)O)cc2n1C[C@@H]1CCO1)N1CCN(c2cccc(OCc3ccc(C#N)cc3F)n2)CC1 [Example 20A]        min          18.6

Record C[C@@H](c1nc2ccc(C(=O)O)nc2n1C[C@@H]1CCO1)N1CCN(c2cccc(OCc3ccc(Cl)cc3F)n2)CC1 [Example 52A] . Reported half-life: 57

Record C[C@@H](c1nc2ccc(C(=O)O)nc2n1C[C@@H]1CCO1)N1CCC(c2cccc(OCc3ccc(Cl)cc3F)n2)CC1 . Reported half-life: 52.2

----------
Assay: Pharmacokinetic study on rat
Assay type: in vivo, SD rats
Conditions: male, Sprague-Dawley (SD), plasma, po, 5 mg/kg, p.o
endpointName: half-life (h)
Express the result in h but write the number alone.

> print(dat)
                                   compound  scaleunit  numericvalue
1  C[C@@H](c1nc2ccc(C(=O)O)nc2n1C[C@@H]1CCO1)N1CCN(c2cccc(OCc3ccc(Cl)cc3F)n2)CC1 [Example 52A]          h          2.77
2  C[C@@H](c1nc2ccc(C(=O)O)nc2n1C[C@@H]1CCO1)N1CCC(c2cccc(OCc3ccc(Cl)cc3F)n2)CC1          h          2.69
3  C[C@@H](c1nc2ccc(C(=O)O)nc2n1C[C@@H]1CCO1)N1CCN(c2cccc(OCc3ccc(C#N)cc3F)n2)CC1 [Example 51A]          h          1.06
4  C[C@@H](c1nc2ccc(C(=O)O)cc2n1C[C@@H]1CCO1)N1CCC(c2cccc(OCc3cc(F)ccc3F)n2)CC1          h          2.76

Record C[C@@H](c1nc2ccc(C(=O)O)cc2n1C[C@@H]1CCO1)N1CCN(c2cc(C(F)(F)F)cc(OCc3ccc(C#N)cc3F)n2)CC1 . Reported half-life: 2.9

Record C[C@@H](c1nc2ccc(C(=O)O)cc2n1C[C@@H]1CCO1)N1CCN(c2cccc(OCc3ccc(C#N)cc3F)n2)CC1 [Example 20A] . Reported half-life: 1.17

Record C[C@@H](c1nc2ccc(C(=O)O)cc2n1C[C@@H]1CCO1)N1CCC(c2cccc(OCc3ccc(Cl)cc3F)n2)CC1 . Reported half-life: 3.4

Record C[C@@H](c1nc2ccc(C(=O)O)cc2n1C[C@@H]1CCO1)N1CCC(c2cccc(OCc3ccc(C#N)cc3F)n2)CC1 . Reported half-life: 3.11

----------
Target: hERG potassium ion channel (Homo sapiens, UniProt Q12809)
Sequence (Q12809 whole entry): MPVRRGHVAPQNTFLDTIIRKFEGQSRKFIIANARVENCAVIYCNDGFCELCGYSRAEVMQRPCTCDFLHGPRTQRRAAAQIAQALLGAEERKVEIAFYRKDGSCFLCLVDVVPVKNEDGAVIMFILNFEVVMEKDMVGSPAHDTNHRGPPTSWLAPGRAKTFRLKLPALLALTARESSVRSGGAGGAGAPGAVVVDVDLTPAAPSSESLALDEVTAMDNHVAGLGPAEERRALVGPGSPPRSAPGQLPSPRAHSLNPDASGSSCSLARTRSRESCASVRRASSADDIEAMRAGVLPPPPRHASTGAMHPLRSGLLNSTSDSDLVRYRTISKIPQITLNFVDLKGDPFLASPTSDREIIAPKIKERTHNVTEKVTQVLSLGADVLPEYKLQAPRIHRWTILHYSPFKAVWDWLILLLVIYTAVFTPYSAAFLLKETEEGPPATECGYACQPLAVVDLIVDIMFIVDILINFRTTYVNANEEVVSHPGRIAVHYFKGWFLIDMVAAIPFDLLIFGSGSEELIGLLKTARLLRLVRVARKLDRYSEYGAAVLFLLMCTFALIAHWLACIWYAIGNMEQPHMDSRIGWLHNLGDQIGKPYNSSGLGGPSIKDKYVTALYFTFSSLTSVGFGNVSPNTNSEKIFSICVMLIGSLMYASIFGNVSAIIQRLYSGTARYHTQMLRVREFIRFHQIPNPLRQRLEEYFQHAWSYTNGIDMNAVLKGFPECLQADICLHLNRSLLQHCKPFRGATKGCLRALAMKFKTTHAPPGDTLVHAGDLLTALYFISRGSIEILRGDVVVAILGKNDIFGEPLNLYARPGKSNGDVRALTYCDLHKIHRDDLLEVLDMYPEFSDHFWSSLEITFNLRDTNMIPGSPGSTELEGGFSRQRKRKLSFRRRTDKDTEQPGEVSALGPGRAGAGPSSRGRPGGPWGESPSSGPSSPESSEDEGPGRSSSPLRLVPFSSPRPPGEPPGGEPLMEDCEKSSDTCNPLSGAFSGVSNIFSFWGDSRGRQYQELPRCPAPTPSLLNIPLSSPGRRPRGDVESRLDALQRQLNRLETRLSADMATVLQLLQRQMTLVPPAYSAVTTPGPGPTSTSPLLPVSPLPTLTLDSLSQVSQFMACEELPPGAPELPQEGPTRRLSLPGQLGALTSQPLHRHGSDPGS
Assay: Effect on hERG potassium ion channel (CHO-hERG, manual patch clamp)
endpointName: IC50

The compound C[C@@H](c1nc2ccc(C(=O)O)cc2n1C[C@@H]1CCO1)N1CCN(c2cccc(OCc3ccc(C#N)cc3F)n2)CC1 [Example 20A] , tested on hERG potassium ion channel (Homo sapiens, UniProt Q12809), showed IC50 of > 30 µM

----------
Biological target: human GLP-1 R (Homo sapiens)
Sequence (P43220 24-463): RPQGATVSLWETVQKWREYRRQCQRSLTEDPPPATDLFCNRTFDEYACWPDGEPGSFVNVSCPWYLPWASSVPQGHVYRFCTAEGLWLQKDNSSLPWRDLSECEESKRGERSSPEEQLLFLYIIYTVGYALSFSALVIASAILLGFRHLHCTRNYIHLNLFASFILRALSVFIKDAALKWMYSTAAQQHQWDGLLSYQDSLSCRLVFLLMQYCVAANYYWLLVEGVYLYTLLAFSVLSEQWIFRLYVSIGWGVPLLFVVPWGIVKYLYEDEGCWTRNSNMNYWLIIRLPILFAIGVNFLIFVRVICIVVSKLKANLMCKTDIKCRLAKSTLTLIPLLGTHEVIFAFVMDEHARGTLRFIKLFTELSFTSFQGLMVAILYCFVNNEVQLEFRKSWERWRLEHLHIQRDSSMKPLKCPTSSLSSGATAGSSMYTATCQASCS
Assay: cAMP signal activation in human GLP1R cells (hGLP1R-U2OS, HTRF)
# note: boundary value 4 nM maps to 0.0; EC50 below it maps to 1.0

Examples from the recorded data:
> print(dat)
                                   molecule                   studysystem  class
1  C[C@@H](c1nc2ccc(C(=O)O)cc2n1C[C@@H]1CCO1)N1CCN(c2cc(C#N)cc(OCc3ccc(C#N)cc3F)n2)CC1  human GLP-1 R (Homo sapiens)    0.0
2  C[C@@H](c1nc2ccc(C(=O)O)cc2n1C[C@@H]1CCO1)N1CCC(c2cccc(OCc3ccc(Br)cc3F)n2)CC1  human GLP-1 R (Homo sapiens)    0.0
3  C[C@@H](c1nc2ccc(C(=O)O)cc2n1C[C@@H]1CCO1)N1CCC(c2cccc(OCc3ccc(C#N)cc3F)n2)CC1  human GLP-1 R (Homo sapiens)    1.0
4  C[C@@H](c1nc2ccc(C(=O)O)cc2n1C[C@@H]1CCO1)N1CCC(c2cccc(OCc3ccc(Cl)cc3F)n2)CC1  human GLP-1 R (Homo sapiens)    1.0
5  C[C@@H](c1nc2ccc(C(=O)O)nc2n1C[C@@H]1CCO1)N1CCC(c2cccc(OCc3ccc4cnn(CC(F)F)c4c3)n2)CC1  human GLP-1 R (Homo sapiens)    1.0

Could you now consider this next molecule?
Lab log: compare recorded EC50 with 4 nM; is it strictly lower for C[C@@H](c1nc2ccc(C(=O)O)cc2n1C[C@@H]1CCO1)N1CCN(c2cccc(OCc3ccc(C#N)cc3F)n2)CC1 [Example 20A] ?
0.0

----------
Test: Pharmacokinetic study on rat
Assay type: in vivo, SD rats
Details: male, Sprague-Dawley (SD), plasma, iv, 1 mg/kg, i.v
Each entry below carries its recorded clearance.
Express the result in mL/min/kg but write the number alone.

Sample records with clearance:
> print(dat)
                                   compound  scaleunit  numericvalue
1  C[C@@H](c1nc2ccc(C(=O)O)cc2n1C[C@@H]1CCO1)N1CCN(c2cc(C(F)(F)F)cc(OCc3ccc(C#N)cc3F)n2)CC1 [Example 44]  mL/min/kg          7.37
2  C[C@@H](c1nc2ccc(C(=O)O)cc2n1C[C@@H]1CCO1)N1CCC(c2cccc(OCc3cc(F)ccc3F)n2)CC1 [Example 5]  mL/min/kg          2.88

Attention now turns to another entry.
Record C[C@@H](c1nc2ccc(C(=O)O)cc2n1C[C@@H]1CCO1)N1CCC(c2cccc(OCc3ccc(Cl)cc3F)n2)CC1 [Example 1A] . Reported clearance: 6.88

----------
Assay: Pharmacokinetic study on rat
Format: in vivo, SD rats
Conditions: male, Sprague-Dawley (SD), plasma, iv, 1 mg/kg, i.v
# note: boundary value 2000 ng/mL maps to NO; Cmax below it maps to YES

Examples from the recorded data:
> print(dat)
                                   compound  class
1  C[C@@H](c1nc2ccc(C(=O)O)cc2n1C[C@@H]1CCO1)N1CCN(c2cc(C(F)(F)F)cc(OCc3ccc(C#N)cc3F)n2)CC1     NO
2  C[C@@H](c1nc2ccc(C(=O)O)cc2n1C[C@@H]1CCO1)N1CCC(c2cccc(OCc3cc(F)ccc3F)n2)CC1     NO
3  C[C@@H](c1nc2ccc(C(=O)O)nc2n1C[C@@H]1CCO1)N1CCC(c2cccc(OCc3ccc(Cl)cc3F)n2)CC1     NO

Lab log: compare recorded Cmax with 2000 ng/mL; is it strictly lower for C[C@@H](c1nc2ccc(C(=O)O)cc2n1C[C@@H]1CCO1)N1CCN(c2cccc(OCc3ccc(C#N)cc3F)n2)CC1 [Example 20A] ?
YES

----------
Each entry below carries its recorded half-life.
Experiment: Pharmacokinetic study on rat
Type: in vivo, SD rats
Settings: male, Sprague-Dawley (SD), plasma, iv, 1 mg/kg, i.v
Excerpt: • SD rats: male, 180-250 g, purchased from Beijing Vital River Laboratory Animal Technology Co., Ltd. • Reagents: DMSO (dimethyl sulfoxide), PEG-400 (polyethylene glycol 400), physiological saline, heparin, acetonitrile, formic acid, and propranolol (internal standard), all of which are commercially available. • Instruments: Thermo Fisher Scientific LC-MS (U300 UPLC, TSQ QUANTUMN ULTRA triple quadrupole mass spectrometer). […]
Express the result in min but write the number alone.

Sample records with half-life:
> print(dat)
                                   molecule  numericvalue
1  C[C@@H](c1nc2ccc(C(=O)O)cc2n1C[C@@H]1CCO1)N1CCC(c2cccc(OCc3ccc(C#N)cc3F)n2)CC1          42.6
2  C[C@@H](c1nc2ccc(C(=O)O)nc2n1C[C@@H]1CCO1)N1CCN(c2cccc(OCc3ccc(C#N)cc3F)n2)CC1 [Example 51A]          42.6
3  C[C@@H](c1nc2ccc(C(=O)O)cc2n1C[C@@H]1CCO1)N1CCN(c2cc(C(F)(F)F)cc(OCc3ccc(C#N)cc3F)n2)CC1          41.4

Record C[C@@H](c1nc2ccc(C(=O)O)cc2n1C[C@@H]1CCO1)N1CCC(c2cccc(OCc3cc(F)ccc3F)n2)CC1 . Reported half-life: 232

Record C[C@@H](c1nc2ccc(C(=O)O)cc2n1C[C@@H]1CCO1)N1CCC(c2cccc(OCc3ccc(Cl)cc3F)n2)CC1 . Reported half-life: 173
